# Test system: A498
# PROCEDURE DETAILS: NCI tumour cell line growth inhibition, 48 h
Calls of active or inactive are those of the source. No stated cut-off is given here; in the data, active = GI50 up to about 1.1 µM and inactive = higher.
Outcomes: TRUE = active, FALSE = inactive

MOLECULE: Cc1nnc2n1-c1ccccc1C(=S)N1CSCC21 (centres undefined)
SUBJECT OF TEST: A498
LABEL: FALSE
//
MOLECULE: CC(=O)NC1=C(N)C(=O)c2ccccc2C1=O
SUBJECT OF TEST: A498
LABEL: FALSE
//
MOLECULE: COc1cc(/C=C2\CCC/C(=C\c3cc(OC)c(O)c(OC)c3)C2=O)cc(OC)c1O
SUBJECT OF TEST: A498
LABEL: FALSE
//
MOLECULE: COC(=O)[C@@]12OC[C@]34C([C@@H](O)C1O)[C@@]1(C)CC(=O)C(OC(=O)CC(C)C(F)(F)F)=C(C)C1C[C@H]3OC(=O)[C@H](O)[C@H]42 (some centres undefined)
SUBJECT OF TEST: A498
LABEL: TRUE
//
MOLECULE: CC(=O)OCC1OC(n2c(C)c(C(C)=O)c(-c3cccc4ccccc34)c(C#N)c2=S)C(OC(C)=O)C(OC(C)=O)C1OC(C)=O (centres undefined)
SUBJECT OF TEST: A498
LABEL: FALSE
//
MOLECULE: CCOC(=O)c1sc2c(c1OC(=O)c1ccccc1)c(=O)n(-c1ccccc1)c(=S)n2-c1ccccc1
SUBJECT OF TEST: A498
LABEL: FALSE
//
MOLECULE: O=C1CCCc2cc3c(cc21)CC1(C3)Cc2ccc3c(c2C1)C(=O)CCC3 (centres undefined)
SUBJECT OF TEST: A498
LABEL: FALSE
//
MOLECULE: O=C1c2cccc3cc4ccccc4c(c23)C(=O)N1CCCNCCNCCCN1C(=O)c2cccc3cc4ccccc4c(c23)C1=O
SUBJECT OF TEST: A498
LABEL: TRUE
//
MOLECULE: CCN1CCC(O)(c2ccc(Cl)c(Cl)c2)C(C(=O)c2ccc(Cl)c(Cl)c2)C1 (centres undefined)
SUBJECT OF TEST: A498
LABEL: FALSE
//
MOLECULE: CC1=C(CO)C(=O)O[C@@H]([C@@H](C)[C@H]2CC[C@H]3[C@@H]4C[C@@H](O)[C@@]5(O)CC=CC(=O)[C@]5(C)[C@H]4CC[C@]23C)C1
SUBJECT OF TEST: A498
LABEL: FALSE
//
MOLECULE: Cc1cccc(NS(=O)(=O)c2ccc3c(c2)OCCOCCOCCOCCO3)c1
SUBJECT OF TEST: A498
LABEL: FALSE
//
MOLECULE: O=C(c1cccs1)N(C(=O)N1CCN(c2ccccc2)CC1)S(=O)(=O)c1ccccc1
SUBJECT OF TEST: A498
LABEL: FALSE
//
MOLECULE: CCOC(=O)Nc1cc2ccccc2c(/N=N/c2ccccc2)c1O
SUBJECT OF TEST: A498
LABEL: FALSE
//
MOLECULE: COc1cccc(CCNc2c(C#N)c3n(c4ccccc4[n+]3C)c3ncccc23)c1
SUBJECT OF TEST: A498
LABEL: FALSE
//
MOLECULE: C=CC(Br)(CBr)CCC1OC1(C)C (centres undefined)
SUBJECT OF TEST: A498
LABEL: FALSE
//
MOLECULE: Fc1cc2nc3n(c2cc1F)C(c1c(Cl)cccc1Cl)SC3 (centres undefined)
SUBJECT OF TEST: A498
LABEL: FALSE
//
MOLECULE: CN(C)c1ccc(-c2ccc(N(C)C)c3n[se]nc23)c2n[se]nc12
SUBJECT OF TEST: A498
LABEL: FALSE
//
MOLECULE: COc1cc2c(cc1O)C1Cc3ccc(OC)c(O)c3C[N+]1(C)CC2 (centres undefined)
SUBJECT OF TEST: A498
LABEL: FALSE
//
MOLECULE: N#CCCn1[nH]c(=O)c(Cl)c(Cl)c1=O
SUBJECT OF TEST: A498
LABEL: FALSE

----------
# Tested on: NCI-H226
# PROCEDURE DETAILS: NCI tumour cell line growth inhibition, 48 h
The source made the active and inactive calls. Rule as the data show it: active = GI50 up to about 1.1 µM and inactive = higher.

COMPOUND: N#Cc1c(C#N)c(-c2ccccc2)n(-c2ccccc2)c1N
SUBJECT OF TEST: NCI-H226
GI50: 72.4 µM (inactive)
--
COMPOUND: C[C@H](CC[C@@H](O)C(C)(C)O)[C@H]1CC[C@@]2(C)[C@@H]3CC=C4[C@@H](CC[C@H](OC5OC(CO)C(O)C(O)C5O)C4(C)C)[C@]3(C)C(=O)C[C@]12C (stereo not given in full)
SUBJECT OF TEST: NCI-H226
GI50: > 100 µM (inactive)
--
COMPOUND: CN(C)CCCNc1c2c(=O)n(C)c(=O)nc-2n(C)c2ccccc12
SUBJECT OF TEST: NCI-H226
GI50: 5.07 µM (inactive)
--
COMPOUND: CC(C)(C)OC(=O)NCCC1SC2C=CC1C2 (stereo not given)
SUBJECT OF TEST: NCI-H226
GI50: > 100 µM (inactive)
--
COMPOUND: O=C(NCCCl)Nc1ccccc1
SUBJECT OF TEST: NCI-H226
GI50: > 100 µM (inactive)
--
COMPOUND: COc1ccc(/N=C(\C)c2ccncc2)cc1
SUBJECT OF TEST: NCI-H226
GI50: 93.3 µM (inactive)
--
COMPOUND: O/N=C(/CC(O)(C(F)(F)F)C(F)(F)F)c1ccccc1
SUBJECT OF TEST: NCI-H226
GI50: > 10 µM (inactive)
--
COMPOUND: CN1NC2(CCCCC2)ON=C1c1ccccc1
SUBJECT OF TEST: NCI-H226
GI50: > 100 µM (inactive)
--
COMPOUND: CC(C)(C)OC(=O)NC(CCCCNC(=O)OCc1ccccc1)C(=O)NC(CCCCNC(=O)OCc1ccccc1)C(=O)ON1C(=O)CCC1=O (stereo not given)
SUBJECT OF TEST: NCI-H226
GI50: > 100 µM (inactive)
--
COMPOUND: CSc1c(CC(=O)Nc2ccc(Cl)cc2)n(Cc2ccccc2)c2ccccc12
SUBJECT OF TEST: NCI-H226
GI50: 20.8 µM (inactive)

----------
# System: DU-145
# PROCEDURE DETAILS: NCI tumour cell line growth inhibition, 48 h
Active and inactive are the calls of the source. Cut-off read from the data, not from the text of the source: active = GI50 up to about 1.1 µM and inactive = higher.
Outcomes: active, inactive

MOLECULE: CCOC(=O)c1cc(C2CCN(Cc3ccccc3)C2=S)c(C(=O)C=[N+]=[N-])[nH]1 (stereo unspecified)
LABEL: inactive
--
MOLECULE: CC[C@]12C=CCN3CC[C@@]4(c5cc(Br)c(OC)c([N+](=O)[O-])c5N(C)[C@H]4[C@@](O)(C(=O)OC)[C@@H]1OC(C)=O)[C@@H]32
LABEL: inactive
--
MOLECULE: Cn1c(=O)nc2n(CCO)ccnc-2c1=O
LABEL: inactive
--
MOLECULE: Cc1cc2c3c(nc4ccccc42)C(=O)c2ccccc2-c3n1
LABEL: inactive
--
MOLECULE: CCOC(=O)c1[nH]c(Br)c(-c2ccc(OC)c(OC)c2)c1Br
LABEL: active
--
MOLECULE: COC(=O)C1=C(C(=O)OC)C(C(=O)OC)C(C(=O)OC)C(C(=O)OC)(C(=O)OC)C(C(=O)OC)=C1C(=O)OC (stereo unspecified)
LABEL: inactive
--
MOLECULE: COC(=O)C1=C(\c2ccccc2)c2ccccc2C(=O)N(C2CCCCC2)/C=C\1
LABEL: inactive
--
MOLECULE: N#Cc1c(C#N)c(-c2ccccc2)n(-c2ccccc2)c1N
LABEL: inactive
--
MOLECULE: Cc1cccc(NS(=O)(=O)c2ccc3c(c2)OCCOCCOCCOCCO3)c1
LABEL: inactive
--
MOLECULE: Cc1ccc(/N=N/C(=N\NC(=O)c2ccc(C)cc2)c2ccc(N(CCC#N)CCC#N)cc2C)cc1
LABEL: inactive
--
MOLECULE: COc1cc(CNc2nc3cc(C(F)(F)F)ccc3nc2C)cc(OC)c1OC
LABEL: inactive

Just for reference, ChEMBL document CHEMBL1201862 is where these values come from.
